EXPERIMENTAL_PROTOCOL: Cytotoxicity against MDBK cells after 48 hrs
Type: cell-based, Bos taurus
TEST_PARAMETERS: cattle
READOUT_LABEL: MNTC at 48 h (µg/mL)

# MOLECULE, READOUT_LABEL, READOUT_UNITS, OBS_VALUE
data = [
    ("CC(=O)C1(c2ccccc2)CCN(Cc2oc(CCl)cc(=O)c2O)CC1", "MNTC at 48 h", "µg/mL", 0.4),
    ("O=c1cc(CCl)oc(CN2CCN(Cc3ccc(Cl)c(Cl)c3)CC2)c1O", "MNTC at 48 h", "µg/mL", 0.4),
    ("CC(C)(C)OC(=O)N1CCN(Cc2oc(CCl)cc(=O)c2O)CC1", "MNTC at 48 h", "µg/mL", 0.8),
    ("O=c1cc(CCl)oc(CN2CCN(C(c3ccccc3)c3ccc(Cl)cc3)CC2)c1O (stereo not drawn)", "MNTC at 48 h", "µg/mL", 0.4),
    ("O=c1cc(CCl)oc(CN2CCN(Cc3ccc(F)cc3)CC2)c1O", "MNTC at 48 h", "µg/mL", 1.6),
    ("Nc1nc2c(ncn2COCCO)c(=O)[nH]1", "MNTC at 48 h", "µg/mL", 1.6),
    ("O=c1cc(CCl)oc(CN2CCC(O)(c3ccc(Br)cc3)CC2)c1O", "MNTC at 48 h", "µg/mL", 0.4),
    ("O=c1cc(CCl)oc(CN2CCC(O)(c3ccc(Cl)c(C(F)(F)F)c3)CC2)c1O", "MNTC at 48 h", "µg/mL", 0.8),
]
